pKi values, listed per item
Biological target: UniProtKB P11511
Sequence (P11511 whole entry): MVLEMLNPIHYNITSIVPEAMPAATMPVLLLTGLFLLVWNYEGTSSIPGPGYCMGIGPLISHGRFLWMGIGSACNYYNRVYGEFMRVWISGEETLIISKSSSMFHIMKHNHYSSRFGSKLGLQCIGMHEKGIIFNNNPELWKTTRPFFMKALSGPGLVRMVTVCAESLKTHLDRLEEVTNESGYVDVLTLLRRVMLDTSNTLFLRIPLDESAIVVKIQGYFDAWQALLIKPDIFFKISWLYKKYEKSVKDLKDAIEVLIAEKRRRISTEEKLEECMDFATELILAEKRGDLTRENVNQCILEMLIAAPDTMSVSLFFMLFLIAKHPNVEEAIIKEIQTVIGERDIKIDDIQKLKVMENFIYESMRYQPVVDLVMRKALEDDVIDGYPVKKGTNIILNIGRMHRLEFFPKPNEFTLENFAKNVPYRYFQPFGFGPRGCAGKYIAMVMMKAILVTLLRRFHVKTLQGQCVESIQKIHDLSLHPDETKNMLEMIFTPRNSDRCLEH
Assay: Competitive inhibition of human aromatase extracted from placental microsomes after 10 mins by Lineweaver- Burk plots analysis in presence of [1beta-3H]androstenedione
Schema: pKi number; meaning minus log10 of the concentration expressed in molar units.

Consider the reported pKi for these compounds:
# testSmiles, readoutNumber
data = [
    ("C[C@]12C=CC(=O)C(Sc3ccccc3)=C1C=C[C@@H]1[C@@H]2CC[C@]2(C)C(=O)CC[C@@H]12", 8.01),
    ("C[C@]12CCC(=O)C(Sc3ccccc3)=C1C=C[C@@H]1[C@@H]2CC[C@]2(C)C(=O)CC[C@@H]12", 8.01),
]

So, `C[C@]12C=CC(=O)C(Sc3ccccc3)=C1CC[C@@H]1[C@@H]2CC[C@]2(C)C(=O)CC[C@@H]12` ? Its pKi was 8.01

Every entry's value here was drawn from ChEMBL document CHEMBL3751755.
